system: c-myc in 22RV-1 cells; test: Human c-myc ELISA assay; type: cell-based; details: Homo sapiens, 22Rv1, 18 h, read-out: Degradation of BRD4: Maximum inhibition (%) c-Myc ELISA in 22RV1 cells
Listed next: entries and their corresponding Emax.
Readout Type: Emax (%)

>>> observed_result("Cc1ncsc1-c1ccc(CNC(=O)[C@@H]2C[C@@H](O)CN2C(=O)[C@@H](NC(=O)COCCCOc2ccc3c(c2)c2c(C(N)=O)cc(-c4c(C)noc4C)cc2n3Cc2ccccc2)C(C)(C)C)cc1")
91.5
>>> observed_result("Cc1ncsc1-c1ccc(CNC(=O)[C@@H]2C[C@@H](O)CN2C(=O)[C@@H](NC(=O)COCCOCCOCCOCCOc2ccc(NC(=O)C[C@@H]3N=C(c4ccc(Cl)cc4)c4c(sc(C)c4C)-n4c(C)nnc43)cc2)C(C)(C)C)cc1")
100
>>> observed_result("Cc1ncsc1-c1ccc([C@H](C)NC(=O)[C@@H]2C[C@@H](O)CN2C(=O)[C@@H](NC(=O)CN2CCC(O[C@H]3C[C@H](NC(=O)C[C@@H]4N=C(c5ccc(Cl)cc5)c5ccccc5-c5c(C)noc54)C3)CC2)C(C)(C)C)cc1")
100
>>> observed_result("CCc1ccc(C2=N[C@@H](CC(=O)Nc3ccc(OCCCOCCCOCC(=O)N[C@H](C(=O)N4C[C@H](O)C[C@H]4C(=O)NCc4ccc(-c5scnc5C)cc4)C(C)(C)C)cc3)c3nnc(C)n3-c3sc(C)c(C)c32)cc1")
96.5
>>> observed_result("Cc1ncsc1-c1ccc(CNC(=O)[C@@H]2C[C@@H](O)CN2C(=O)[C@H](c2cc(OCCN3CCC(NC(=O)C[C@@H]4N=C(c5ccc(Cl)cc5)c5c(sc(C)c5C)-n5c(C)nnc54)CC3)no2)C(C)C)cc1")
11.4
>>> observed_result("Cc1ncsc1-c1ccc([C@H](C)NC(=O)[C@@H]2C[C@@H](O)CN2C(=O)[C@H](C(C)C)n2cc(-c3ccc(N4CCN(C(=O)C[C@@H]5N=C(c6ccc(Cl)cc6)c6c(sc(C)c6C)-n6c(C)nnc65)CC4)nc3)cn2)cc1")
97.8
>>> observed_result("Cc1ncsc1-c1ccc([C@H](C)NC(=O)[C@@H]2C[C@@H](O)CN2C(=O)[C@@H](NC(=O)COc2nccc(N3CCN(C(=O)C[C@@H]4N=C(c5ccc(Cl)cc5)c5c(sc(C)c5C)-n5c(C)nnc54)CC3)n2)C(C)(C)C)cc1")
81.5
>>> observed_result("Cc1ncsc1-c1ccc(CNC(=O)[C@@H]2C[C@@H](O)CN2C(=O)[C@H](c2cc(OCCO[C@H]3C[C@@H](NC(=O)C[C@@H]4N=C(c5ccc(Cl)cc5)c5c(sc(C)c5C)-n5c(C)nnc54)C3)no2)C(C)C)cc1")
71.4
>>> observed_result("Cc1ncsc1-c1ccc(CNC(=O)[C@@H]2C[C@@H](O)CN2C(=O)[C@@H](C(C)C)n2cc(Oc3ccc(CNC(=O)C[C@@H]4N=C(c5ccc(Cl)cc5)c5c(sc(C)c5C)-n5c(C)nnc54)cc3)cn2)cc1")
13.8
>>> observed_result("Cc1ncsc1-c1ccc([C@H](C)NC(=O)[C@@H]2C[C@@H](O)CN2C(=O)[C@@H](NC(=O)CCc2ccnc(O[C@H]3C[C@@H](NC(=O)C[C@@H]4N=C(c5ccc(Cl)cc5)c5c(sc(C)c5C)-n5c(C)nnc54)C3)c2)C(C)(C)C)cc1")
95
>>> observed_result("Cc1ncsc1-c1ccc(CNC(=O)[C@@H]2C[C@@H](O)CN2C(=O)[C@@H](NC(=O)COCCOc2cccc(NC(=O)C[C@@H]3N=C(c4ccc(Cl)cc4)c4c(sc(C)c4C)-n4c(C)nnc43)c2)C(C)(C)C)cc1")
99
>>> observed_result("Cc1ncsc1-c1ccc([C@H](C)NC(=O)[C@@H]2C[C@@H](O)CN2C(=O)[C@@H](NC(=O)/C=C/c2cc(O[C@H](C)CNC(=O)C[C@@H]3N=C(c4ccc(Cl)cc4)c4c(sc(C)c4C)-n4c(C)nnc43)ccc2F)C(C)(C)C)cc1")
91.5
>>> observed_result("Cc1ncsc1-c1ccc(CNC(=O)[C@@H]2C[C@@H](O)CN2C(=O)[C@@H](NC(=O)COCCCOCCCOc2ccc(NC(=O)C[C@@H]3N=C(c4ccc(Cl)cc4)c4c(sc(C)c4C)-n4c(C)nnc43)cc2)C(C)(C)C)cc1")
98.6
>>> observed_result("Cc1ncsc1-c1ccc([C@H](C)NC(=O)[C@@H]2C[C@@H](O)CN2C(=O)[C@@H](NC(=O)COc2ccc(N3CCN(C(=O)C[C@@H]4N=C(c5ccc(Cl)cc5)c5c(sc(C)c5C)-n5c(C)nnc54)CC3)nc2)C(C)(C)C)cc1")
98
>>> observed_result("Cc1ncsc1-c1ccc(CNC(=O)[C@@H]2C[C@@H](O)CN2C(=O)[C@@H](NC(=O)COCCN2CCN(c3ccc(CNC(=O)C[C@@H]4N=C(c5ccc(Cl)cc5)c5c(sc(C)c5C)-n5c(C)nnc54)cc3)CC2)C(C)(C)C)cc1")
91
>>> observed_result("Cc1ncsc1-c1ccc([C@H](C)NC(=O)[C@@H]2C[C@@H](O)CN2C(=O)[C@H](C(C)C)n2cc(-c3ccnc(N4CC[C@@H](NC(=O)C[C@@H]5N=C(c6ccc(Cl)cc6)c6c(sc(C)c6C)-n6c(C)nnc65)C4)c3)cn2)cc1")
97
